Each entry below carries its reported pIC50.
target: NR1a/NR2B NMDA receptor (Rattus norvegicus, UniProt P35439+Q00960); construct: expressed in transfected cells; experiment: Functional NMDA antagonism, fluorimetric intracellular calcium measurement on HEK293 cells expressing NR1a/NR2B; type: cell-based; conditions: HEK293 cells expressing NR1a/NR2B; reference compounds; read-out: NR1a/NR2B IC50
Sequence (Q00960 27-1482, other chains not shown): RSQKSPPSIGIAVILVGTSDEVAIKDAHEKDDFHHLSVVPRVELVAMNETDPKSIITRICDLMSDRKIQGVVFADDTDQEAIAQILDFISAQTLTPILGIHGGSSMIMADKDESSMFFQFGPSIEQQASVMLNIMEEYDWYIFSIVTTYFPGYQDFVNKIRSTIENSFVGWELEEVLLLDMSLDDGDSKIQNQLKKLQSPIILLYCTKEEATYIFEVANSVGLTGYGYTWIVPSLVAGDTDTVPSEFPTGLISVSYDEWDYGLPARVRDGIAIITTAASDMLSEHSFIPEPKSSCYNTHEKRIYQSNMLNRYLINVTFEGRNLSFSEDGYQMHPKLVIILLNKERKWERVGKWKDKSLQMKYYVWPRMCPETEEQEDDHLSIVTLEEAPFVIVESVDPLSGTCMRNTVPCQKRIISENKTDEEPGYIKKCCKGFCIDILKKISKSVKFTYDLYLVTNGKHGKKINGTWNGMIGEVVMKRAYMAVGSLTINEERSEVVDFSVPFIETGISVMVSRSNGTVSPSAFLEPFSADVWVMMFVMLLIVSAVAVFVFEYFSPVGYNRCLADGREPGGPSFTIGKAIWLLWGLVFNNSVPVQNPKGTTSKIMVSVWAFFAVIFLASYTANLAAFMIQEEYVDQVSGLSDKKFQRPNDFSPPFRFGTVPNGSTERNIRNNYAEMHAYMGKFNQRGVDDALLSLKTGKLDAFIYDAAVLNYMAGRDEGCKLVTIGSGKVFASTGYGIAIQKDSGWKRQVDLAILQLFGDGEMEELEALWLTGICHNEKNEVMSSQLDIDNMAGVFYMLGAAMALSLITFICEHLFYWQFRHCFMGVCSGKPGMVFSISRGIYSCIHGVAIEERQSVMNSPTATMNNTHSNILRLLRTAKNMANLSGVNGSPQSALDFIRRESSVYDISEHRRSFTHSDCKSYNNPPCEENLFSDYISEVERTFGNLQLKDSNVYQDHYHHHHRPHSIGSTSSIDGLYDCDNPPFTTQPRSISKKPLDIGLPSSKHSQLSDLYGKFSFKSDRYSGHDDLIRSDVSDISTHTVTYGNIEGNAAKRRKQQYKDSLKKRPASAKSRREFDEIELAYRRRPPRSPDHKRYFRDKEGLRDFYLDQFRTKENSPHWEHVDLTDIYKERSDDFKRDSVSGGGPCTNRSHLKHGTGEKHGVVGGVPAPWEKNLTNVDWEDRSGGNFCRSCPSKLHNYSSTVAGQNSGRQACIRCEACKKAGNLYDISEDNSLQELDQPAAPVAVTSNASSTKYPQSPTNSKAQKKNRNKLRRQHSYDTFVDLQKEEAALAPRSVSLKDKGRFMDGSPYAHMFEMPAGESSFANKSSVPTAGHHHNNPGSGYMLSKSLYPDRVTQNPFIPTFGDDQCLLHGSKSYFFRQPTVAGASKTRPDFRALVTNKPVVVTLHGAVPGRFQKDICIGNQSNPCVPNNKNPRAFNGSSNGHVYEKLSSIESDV
In plain terms, pIC50 is the concentration in mol/L turned into minus its base-10 logarithm.

* O=C(CCN1CCC(Cc2ccc(F)cc2)CC1)c1ccc2[nH]c(=O)oc2c1 [EMD 95885, reference compound] | 7.32

For the next question, use this molecule.
[ask] Return pIC50 (reported value) for this molecule: Cc1ccc(CC2(O)CCN(CCOc3ccc(O)cc3)CC2)cc1 [Co-101244, reference compound]
[reply] 8.32

====

Listing of recorded inhibition at 15 µM by entry.
target: NR1-3/NR2A NMDA receptor (Homo sapiens, UniProt Q05586+Q12879); construct: expressed in transfected cells; assay: Functional NMDA antagonism, fluorimetric intracellular calcium measurement on HEK293 cells expressing NR1-3/NR2A; assay type: cell-based; details: 15 μM, NMDA evoked calcium rise
Sequence (Q12879 23-1464, other chains not shown): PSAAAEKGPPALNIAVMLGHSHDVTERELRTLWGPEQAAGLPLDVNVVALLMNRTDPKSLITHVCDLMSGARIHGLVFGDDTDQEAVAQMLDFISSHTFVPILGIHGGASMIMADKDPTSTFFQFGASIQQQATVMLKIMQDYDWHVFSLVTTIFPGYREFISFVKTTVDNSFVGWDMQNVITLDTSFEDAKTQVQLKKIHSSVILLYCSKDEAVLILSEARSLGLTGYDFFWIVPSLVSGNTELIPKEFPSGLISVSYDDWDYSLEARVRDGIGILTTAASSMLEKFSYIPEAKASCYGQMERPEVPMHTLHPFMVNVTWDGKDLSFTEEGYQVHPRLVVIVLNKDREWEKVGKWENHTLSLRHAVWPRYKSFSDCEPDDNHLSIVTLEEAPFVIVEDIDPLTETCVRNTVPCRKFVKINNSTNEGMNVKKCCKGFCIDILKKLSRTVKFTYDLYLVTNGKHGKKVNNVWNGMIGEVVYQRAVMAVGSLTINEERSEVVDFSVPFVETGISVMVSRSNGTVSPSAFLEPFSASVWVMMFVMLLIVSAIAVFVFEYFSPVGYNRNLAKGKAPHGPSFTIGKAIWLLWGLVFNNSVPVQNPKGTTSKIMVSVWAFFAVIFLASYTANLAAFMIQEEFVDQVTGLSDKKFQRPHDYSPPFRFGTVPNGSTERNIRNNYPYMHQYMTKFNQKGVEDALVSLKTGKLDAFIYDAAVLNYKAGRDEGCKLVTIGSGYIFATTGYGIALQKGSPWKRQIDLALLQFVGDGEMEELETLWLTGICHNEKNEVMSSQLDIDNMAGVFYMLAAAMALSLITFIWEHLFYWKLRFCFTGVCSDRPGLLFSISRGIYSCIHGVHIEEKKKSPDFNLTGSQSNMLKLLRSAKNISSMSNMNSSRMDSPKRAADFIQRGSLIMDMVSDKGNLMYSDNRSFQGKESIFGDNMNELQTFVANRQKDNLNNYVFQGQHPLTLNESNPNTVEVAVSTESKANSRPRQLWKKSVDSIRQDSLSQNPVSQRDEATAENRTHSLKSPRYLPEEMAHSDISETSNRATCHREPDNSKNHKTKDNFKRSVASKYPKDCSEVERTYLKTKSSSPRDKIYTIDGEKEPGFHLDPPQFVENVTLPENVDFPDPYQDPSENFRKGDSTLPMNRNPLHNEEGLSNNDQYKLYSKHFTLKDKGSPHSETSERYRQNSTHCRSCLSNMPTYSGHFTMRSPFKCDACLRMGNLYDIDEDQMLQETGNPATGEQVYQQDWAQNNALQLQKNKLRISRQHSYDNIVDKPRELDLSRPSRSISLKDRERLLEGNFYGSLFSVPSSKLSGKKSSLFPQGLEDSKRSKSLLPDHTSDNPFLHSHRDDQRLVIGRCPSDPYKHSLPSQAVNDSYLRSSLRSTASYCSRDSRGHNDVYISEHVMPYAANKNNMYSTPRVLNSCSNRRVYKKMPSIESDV
Unit % implied. Number only.

Recorded results for 5 compounds are shown here.
• O=C(c1cc(=O)c2cc(O)ccc2[nH]1)N1CCC(Cc2ccccc2)CC1 = 7
• O=C(c1cc(=O)c2cc(O)ccc2[nH]1)N1CCC(Oc2ccccc2)CC1 = 0.2
• O=C(c1cc(=O)c2cc(O)ccc2[nH]1)N1CCC(OCc2ccccc2)CC1 = 5.7
• O=C(c1cc(=O)c2cc(O)ccc2[nH]1)N1CCC(Cc2ccc(F)cc2)CC1 = -0.9
• O=C(c1cc(=O)c2cc(O)ccc2[nH]1)N1CCC(Oc2ccc(Cl)cc2)CC1 = 5.1

Kindly review the next compound as well.
[ask] Give recorded inhibition at 15 µM. "Cc1ccc(OC2CCN(C(=O)c3cc(=O)c4cc(O)ccc4[nH]3)CC2)cc1"
[reply] -3.5

====

target: NR1a/NR2B NMDA receptor (Rattus norvegicus, UniProt P35439+Q00960); construct: expressed in transfected cells; assay: Functional NMDA antagonism, fluorimetric intracellular calcium measurement on HEK293 cells expressing NR1a/NR2B; type: cell-based; conditions: HEK293 cells expressing NR1a/NR2B, 200 μM NMDA evoked calcium rise; compounds of the invention; read-out: NR1a/NR2B IC50
// bucketize IC50: band 1 = under 4 nM, band 2 = from 4 nM up to 6 nM, band 3 = 6 nM and over

• O=C(c1cc(=O)c2cc(O)ccc2[nH]1)N1CCC(Cc2ccccc2)CC1 = band 1
• O=C(c1cc(=O)c2cc(O)ccc2[nH]1)N1CCC(Oc2ccc(Cl)cc2)CC1 = band 2
• O=C(c1cc(=O)c2cc(O)ccc2[nH]1)N1CCC(Oc2ccccc2)CC1 = band 3
• O=C(c1cc(=O)c2cc(O)ccc2[nH]1)N1CCC(OCc2ccccc2)CC1 = band 3
• O=C(c1cc(=O)c2cc(O)ccc2[nH]1)N1CCC(Cc2ccc(Cl)cc2)CC1 = band 1

Here is the next item to consider.
[ask] Which bin should I file "Cc1ccc(CC2CCN(C(=O)c3cc(=O)c4cc(O)ccc4[nH]3)CC2)cc1" under?
[reply] band 1

====

biological target: NR1a/NR2B NMDA receptor (Rattus norvegicus, UniProt P35439+Q00960); construct: expressed in transfected cells; experiment: Functional NMDA antagonism, fluorimetric intracellular calcium measurement on HEK293 cells expressing NR1a/NR2B; assay type: cell-based
OUTCOME MEASURE: IC50 (nM)
Write the value in nM as a bare number.

[ask] Recall and state the measured IC50 for O=c1[nH]c2ccc([S+]([O-])CCN3CCC(Cc4ccc(F)cc4)CC3)cc2o1 (centres unmarked) [CI-1041, reference compound] .
[reply] 8.4

[ask] For the molecule CC(CN1CCC(Cc2ccccc2)CC1)C(O)c1ccc(O)cc1 (centres unmarked) [Ro 25.6981, reference compound] , give its reported IC50.
[reply] 57

====

Each entry below carries its reported inhibition at 15 µM.
biological target: NR1-3/NR2A NMDA receptor (Homo sapiens, UniProt Q05586+Q12879); construct: expressed in transfected cells; test: Functional NMDA antagonism, fluorimetric intracellular calcium measurement on HEK293 cells expressing NR1-3/NR2A; format: cell-based; conditions: 15 μM, NMDA evoked calcium rise
Please give a number only; it is taken to be in %.

In the examples that follow, each entry is paired with its recorded inhibition at 15 µM.
• O=C(c1cc(=O)c2cc(O)ccc2[nH]1)N1CCC(COc2ccccc2)CC1 = 14
• O=C(c1cc(=O)c2cc(O)ccc2[nH]1)N1CCC(Cc2ccc(Cl)cc2)CC1 = -5.1
• O=C(c1cc(=O)c2cc3[nH]c(=O)oc3cc2[nH]1)N1CCC(Cc2ccccc2)CC1 = -2.1

Consider now this further molecule.
[ask] Write down inhibition at 15 µM measured for item "Cc1ccc(CC2CCN(C(=O)c3cc(=O)c4cc(O)ccc4[nH]3)CC2)cc1"
[reply] -2.4

====

Measured IC50, listed per entry.
biological target: NR1a/NR2B NMDA receptor (Rattus norvegicus, UniProt P35439+Q00960); construct: expressed in transfected cells; experiment: Functional NMDA antagonism, fluorimetric intracellular calcium measurement on HEK293 cells expressing NR1a/NR2B; format: cell-based; conditions: HEK293 cells expressing NR1a/NR2B, 200 μM NMDA evoked calcium rise; compounds of the invention; read-out: NR1a/NR2B IC50
State the answer as a number, implicitly in nM.

Recorded IC50, per entry:
- O=C(c1cc(=O)c2cc(O)ccc2[nH]1)N1CCC(Cc2ccc(F)cc2)CC1: 4
- O=C(c1cc(=O)c2cc3[nH]c(=O)oc3cc2[nH]1)N1CCC(Cc2ccccc2)CC1: 5.6
- Cc1ccc(OC2CCN(C(=O)c3cc(=O)c4cc(O)ccc4[nH]3)CC2)cc1: 3.3

Now let's try a different one.
[ask] Provide IC50, recorded with NR1a/NR2B NMDA receptor (Rattus norvegicus, UniProt P35439+Q00960), of "O=C(c1cc(=O)c2cc(O)ccc2[nH]1)N1CCC(COc2ccccc2)CC1"
[reply] 8.9
